Hi there, I'd appreciate the recorded IC50 for every entry that follows.
# test_system: K-Ras G12C (Homo sapiens (Human), UniProt P01116+P62937, G12C)
# Sequence (P01116-2 other isoform, or with tags, fused parts or gaps G12C): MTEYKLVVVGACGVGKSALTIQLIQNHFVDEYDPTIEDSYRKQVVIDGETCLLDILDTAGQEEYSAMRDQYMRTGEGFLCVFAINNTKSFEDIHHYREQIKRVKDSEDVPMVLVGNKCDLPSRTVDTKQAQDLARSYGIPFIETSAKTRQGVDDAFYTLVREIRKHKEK
# Sequence (P62937 whole entry): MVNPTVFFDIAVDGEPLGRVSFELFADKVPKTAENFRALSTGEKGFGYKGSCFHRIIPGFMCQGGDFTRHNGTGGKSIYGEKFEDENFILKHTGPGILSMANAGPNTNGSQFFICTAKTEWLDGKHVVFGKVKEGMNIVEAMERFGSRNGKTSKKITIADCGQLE
# assay_overview: Ras-Raf (BRAF RBD) disruption / FRET / MOA assay, KRAS G12C
# Format: biochemical
# measurement_setup: KRAS G12C; Ras-Raf disruption/FRET/MOA assay; read-out: IC50* KRAS G12C FRET data

Give its IC50 value. Item: C=CC(=O)N1C[C@H](C(=O)N(C)[C@H](C(=O)N[C@H]2Cc3cccc(c3)-c3ccc4c(c3)c(c(-c3cccnc3[C@H](C)OC)n4CC)CC(C)(C)COC(=O)[C@@H]3CCCN(N3)C2=O)C(C)C)[C@@H](C)C1 (atropisomer, axis not shown) [Example A451]
100 to 1000 nM

Give its IC50 value. Item: C=CC(=O)N1CC[C@H](C(=O)N(C)[C@H](C(=O)N[C@H]2Cc3nc(n(C)n3)-c3ccc4c(c3)c(c(-c3cccnc3[C@H](C)OC)n4CC)CC(C)(C)COC(=O)[C@@H]3CCCN(N3)C2=O)C(C)C)C1 (atropisomer, axis not shown) [Example A314]
100 to 1000 nM

Give its IC50 value. Item: CC#CC(=O)N1CC(N(C)C(=O)N(C)[C@H](C(=O)N[C@H]2Cc3nc(cs3)-c3ccc4c(c3)c(c(-c3cccnc3[C@H](C)OC)n4CC)CC(C)(C)COC(=O)[C@@H]3CCCN(N3)C2=O)C(C)C)C1 (atropisomer, axis not shown) [Example A731]
100 to 1000 nM

Give its IC50 value. Item: C=CC(=O)N1CC[C@@]2(C1)CN(C(=O)N(C)[C@H](C(=O)N[C@H]1Cc3nc(cs3)-c3ccc4c(c3)c(c(-c3cccnc3[C@H](C)OC)n4CC)CC(C)(C)COC(=O)[C@@H]3CCCN(N3)C1=O)C(C)C)CCO2 (atropisomer, axis not shown) [Example A353]
10 to 100 nM

Give its IC50 value. Item: C=CC(=O)N1CC[C@H](C(=O)N(C)[C@H](C(=O)N[C@H]2Cc3cc(O)cc(c3)-c3ccc4c(c3)c(c(-c3cnccc3[C@@H](OC)C3CC3)n4CC)CC(C)(C)COC(=O)[C@@H]3CCCN(N3)C2=O)C(C)C)C1 [Example A274]
1000 to 10000 nM

Give its IC50 value. Item: CC#CC(=O)N1CC[C@@]2(CCN([C@H](C(=O)N[C@H]3Cc4cccc(c4)-c4ccc5c(c4)c(c(-c4cccnc4[C@H](C)OC)n5CC)CC(C)(C)COC(=O)[C@@H]4CCCN(N4)C3=O)C(C)C)C2=O)C1 (atropisomer, axis not shown) [Example A426]
100 to 1000 nM

Give its IC50 value. Item: C=CC(=O)N(C)[C@@H]1C[C@H](C)N(C(=O)N(C)[C@H](C(=O)N[C@H]2Cc3nc(cs3)-c3ccc4c(c3)c(c(-c3cccnc3[C@H](C)OC)n4CC)CC(C)(C)COC(=O)[C@@H]3CCCN(N3)C2=O)C(C)C)C1 (atropisomer, axis not shown) [Example A633]
100 to 1000 nM

Give its IC50 value. Item: C=CC(=O)N1CCO[C@H]2CN(C(=O)N(C)[C@H](C(=O)N[C@H]3Cc4nc(cs4)-c4ccc5c(c4)c(c(-c4cccnc4[C@H](C)OC)n5CC)CC(C)(C)COC(=O)[C@@H]4CCCN(N4)C3=O)C(C)C)C[C@@H]21 (atropisomer, axis not shown) [Example A544]
< 10 nM
